Reported Kd is given for each of the following binders.
Target: T1, IFN-αF (human, UniProt P01568 24-189)
T1 construct: also called IFN-α21; alpha F
T1 chain: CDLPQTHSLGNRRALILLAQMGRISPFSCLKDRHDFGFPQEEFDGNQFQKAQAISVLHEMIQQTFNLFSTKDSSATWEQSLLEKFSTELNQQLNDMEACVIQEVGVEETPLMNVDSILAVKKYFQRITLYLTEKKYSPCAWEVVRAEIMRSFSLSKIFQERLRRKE
Assay: ProteOn, one antigen concentration
Response body: numeric value in nM, unit text excluded.

IFWM3301 (antibody, V domains shown, VH IFWH591, VL IFWL983; converted mAb; also called IFWB3036) VH: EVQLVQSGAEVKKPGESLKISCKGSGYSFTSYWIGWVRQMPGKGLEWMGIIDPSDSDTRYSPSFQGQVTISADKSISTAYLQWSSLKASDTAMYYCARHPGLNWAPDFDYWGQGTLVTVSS VL: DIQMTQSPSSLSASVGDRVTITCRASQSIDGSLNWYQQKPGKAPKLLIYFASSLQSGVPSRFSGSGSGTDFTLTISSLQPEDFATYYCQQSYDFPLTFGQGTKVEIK : 0.029

Next:
Entry IFWM3320 (antibody, V domains shown, VH IFWH591, VL IFWL1047; converted mAb; also called IFWB3055) VH: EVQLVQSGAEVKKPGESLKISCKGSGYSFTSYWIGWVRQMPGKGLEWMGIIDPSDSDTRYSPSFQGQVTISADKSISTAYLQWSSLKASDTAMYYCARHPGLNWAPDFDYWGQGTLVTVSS VL: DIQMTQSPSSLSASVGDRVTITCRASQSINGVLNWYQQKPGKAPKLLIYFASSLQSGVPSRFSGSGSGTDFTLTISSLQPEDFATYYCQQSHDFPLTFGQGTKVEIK : reported Kd = ?
0.013
